- STUDY_TARGET: T1, human CD22 (d1 to d7 domain according to NP_001762.2) (human, UniProt P20273 20-687)
- T1 construct: domain: d1 to d7 domain; also called human CD22-gly; Siglec-2
- ASSAY: SPR; summary table, column 'CD22 KD (nM)'
A collection of binders and their measured Kd
QUANTITY: Kd (nM)

BINDER	MEASURED_VALUE
TNT72 (antibody, human IgG1, kappa, V domains shown) VH: QVQLQESGPGLVKPSDTLSLTCTVSGFAFSIYDMSWIRQPPGKGLEWIAYISSGGGTTYYNPSLKSRVTISVDTSKNQFSLKLSSVTAADTAVYYCARHSGYGTHWGVLFAYWGRGTLVTVSS VL: DIQMTQSPSSLSASVGDRVTITCRASQDIHGYLNWYQQKPGKAPKLLIYYTSILHSGVPSRFSGSGSGTDFTLTISSLQPEDFATYFCQQGNTLPWTFGQGTKLEIKR	0.7
TNT71 (antibody, human IgG1, kappa, V domains shown) VH: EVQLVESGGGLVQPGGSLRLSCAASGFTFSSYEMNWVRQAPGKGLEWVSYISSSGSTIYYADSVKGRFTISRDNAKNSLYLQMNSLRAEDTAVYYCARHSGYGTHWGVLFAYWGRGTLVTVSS VL: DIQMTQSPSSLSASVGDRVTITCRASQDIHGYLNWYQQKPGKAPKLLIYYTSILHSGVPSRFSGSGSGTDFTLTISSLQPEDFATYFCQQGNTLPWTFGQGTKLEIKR	0.3
TNT88 (antibody, human IgG1, kappa, V domains shown) VH: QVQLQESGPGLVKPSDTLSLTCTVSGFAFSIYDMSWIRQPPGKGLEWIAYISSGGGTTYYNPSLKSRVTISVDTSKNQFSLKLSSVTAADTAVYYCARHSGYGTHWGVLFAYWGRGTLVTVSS VL: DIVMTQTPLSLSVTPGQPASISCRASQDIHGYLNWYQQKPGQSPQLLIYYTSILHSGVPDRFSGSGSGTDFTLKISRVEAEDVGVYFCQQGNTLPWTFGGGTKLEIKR	1.3
TNT75 (antibody, human IgG1, kappa, V domains shown) VH: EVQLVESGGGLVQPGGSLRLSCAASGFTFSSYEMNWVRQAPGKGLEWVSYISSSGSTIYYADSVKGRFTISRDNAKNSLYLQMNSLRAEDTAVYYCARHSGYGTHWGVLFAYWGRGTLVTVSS VL: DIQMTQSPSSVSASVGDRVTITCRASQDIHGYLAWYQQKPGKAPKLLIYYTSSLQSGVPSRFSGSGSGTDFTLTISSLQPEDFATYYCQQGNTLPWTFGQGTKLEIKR	30
